This collection of values is drawn from patent US20250109141A1.

System: 22RV1
ASSAY PROTOCOL: Cell proliferation assay (CellTiterGlo, 72 h), 22RV1
Format: cell-based
APPLIED CONDITIONS: Homo sapiens, 22Rv1, 72 h; read-out: 22Rv1 ATP average IC50
Procedure: All incubations were performed at 37° C. in a humidified carbon dioxide incubator. The cells were seeded in a 96-well plate (white wall/transparent bottom) at 5000 cells/well and cultured overnight. On day 2, A stock solution of the compound at a concentration of 10 mM was subjected to an 8-fold serial dilution to obtain 8 concentration points. 2 μL of the compound solution at each concentration point was added to 98 μL of fresh medium, and the mixture was mixed homogeneously. […]
pIC50: −log10 of the molar value.
Give pIC50 for every item shown.

Lab note: Cc1sc2c(c1C)C(c1ccc(C#CCN)cc1)=N[C@@H](CC(=O)N(C)N)c1nnc(C)n1-2 gave pIC50 of < 6.30

The reported pIC50 of the molecule COc1ccc2c(c1)C(c1ccc(/C=C/CNO)cc1)=N[C@@H](Cc1nccs1)c1nnc(C)n1-2.Cl was > 7.30

Data point: COc1ccc2c(c1)C(c1ccc(/C=C/CNOC(C)=O)cc1)=N[C@@H](CC(=O)OC(C)(C)C)c1nnc(C)n1-2 ; pIC50 = > 7.30

For this molecule ( CONC/C=C/c1ccc(C2=N[C@@H](CC(=O)OC(C)(C)C)c3nnc(C)n3-c3ccc(OC)cc32)cc1 ), measured pIC50 is > 7.30

For Cc1sc2c(c1C)C(c1ccc(C#CCN)cc1)=N[C@@H](Cc1nccs1)c1nnc(C)n1-2 the molecule record lists pIC50 as 6.70 to 7.30

# molecule COc1ccc2c(c1)C(c1ccc(/C=C/CNO)cc1)=N[C@@H](CC(=O)OC1(C)CC1)c1nnc(C)n1-2 ; its pIC50 = > 7.30

Summary for this molecule, COc1ccc2c(c1)C(c1ccc(/C=C/CNO)cc1)=N[C@@H](CC(=O)OC(C)(C)C)c1nnc(C)n1-2 : pIC50 is > 7.30

Lab note: measured pIC50 of Cc1sc2c(c1C)C(c1ccc(C#CCN)cc1)=N[C@@H](CC(=O)Nc1ccc(O)cc1)c1nnc(C)n1-2 was 6.30 to 6.70

Record COc1ccc2c(c1)C(c1ccc(C#CCN)cc1)=N[C@@H](CC(=O)OC(C)(C)C)c1nnc(C)n1-2 . Reported pIC50: > 7.30

For reference, reported pIC50 for COc1ccc2c(c1)C(c1ccc(C#CCNO)cc1)=N[C@@H](Cc1nccs1)c1nnc(C)n1-2.Cl stands at 6.30 to 6.70
